- system_name: CB1-receptor (UniProt P20272)
assay_readout: IC50 (nM)
Answers are plain numbers, in nM.

// solved cases for IC50 follow
# compound, IC50 / nM
measured = [
    ("O=S(=O)(NCC1=NN(c2ccc(Cl)cc2Cl)C(c2ccc(Cl)cc2)C1)c1ccccc1Cl (stereo not drawn) [Example 23]", 183),
    ("N#Cc1cccc(S(=O)(=O)NCC2=NN(c3ccc(Cl)cc3Cl)C(c3ccc(Cl)cc3)C2)c1 (stereo not drawn) [Example 10]", 70),
    ("Cc1ccc(F)cc1S(=O)(=O)NCC1=NN(c2ccc(Cl)cc2Cl)C(c2ccc(Cl)cc2)C1 (stereo not drawn) [Example 38]", 4.4),
]

# batch size: 5; output IC50 per entry
1. CCOc1ccc(C2CC(CNS(=O)(=O)c3cc(F)ccc3F)=NN2c2ccc(Cl)cc2Cl)cc1 (stereo not drawn) [Example 99]
2. CCOc1ccc(C2CC(CNS(=O)(=O)c3cc(C)ccc3C)=NN2c2ccc(Cl)cc2Cl)cc1 (stereo not drawn) [Example 103]
3. CCOc1ccc(C2CC(CNS(=O)(=O)c3ccccc3F)=NN2c2ccc(Cl)cc2Cl)cc1 (stereo not drawn) [Example 98]
4. CCOc1ccc(C2CC(CNS(=O)(=O)c3cc(Cl)ccc3F)=NN2c2ccc(Cl)cc2Cl)cc1 (stereo not drawn) [Example 100]
5. Cc1cccc(Cl)c1S(=O)(=O)NCC1=NN(c2ccc(Cl)cc2Cl)C(c2ccc(Cl)cc2)C1 (stereo not drawn) [Example 34]

1. 42.6
2. 12.1
3. 47.1
4. 30.8
5. 14.1

Can you look up IC50 on CB1-receptor (UniProt P20272) for CCOc1ccc(C2CC(CNS(=O)(=O)c3cccc(Cl)c3Cl)=NN2c2ccc(Cl)cc2Cl)cc1 (stereo not drawn) [Example 248] ?
17.9

----------
Reported IC50 values, CB1-receptor (UniProt P20272).
Counter-ions that a name gives are not always drawn.

# compound, IC50
measured = [
    ("CCCS(=O)(=O)NCC1=NN(c2ccc(Cl)cc2Cl)C(c2ccc(Cl)cc2)C1 (stereo not shown) [Example 21]", "263 nM"),
    ("Cc1ccc(F)cc1S(=O)(=O)NCC1=NN(c2ccc(Cl)cc2Cl)[C@@H](c2ccc(Cl)cc2)C1 [Example 63]", "50.4 nM"),
    ("CCOc1ccc(C2CC(CNS(=O)(=O)c3ccccc3Br)=NN2c2ccc(Cl)cc2Cl)cc1 (stereo not shown) [Example 249]", "5.6 nM"),
    ("CCOc1ccc(C2CC(CNS(=O)(=O)c3cccc(F)c3)=NN2c2ccc(Cl)cc2Cl)cc1 (stereo not shown) [Example 261]", "9.8 nM"),
    ("Cc1cc(S(=O)(=O)NCC2=NN(c3ccc(Cl)cc3Cl)C(c3ccc(Cl)cc3)C2)c(C)cc1Cl (stereo not shown) [Example 39]", "20.6 nM"),
    ("O=S(=O)(NCC1=NN(c2ccc(Cl)cc2Cl)C(c2ccc(Cl)cc2)C1)c1cccnc1 (stereo not shown) [Example 53, hydrochloride]", "88.2 nM"),
]

// next item, IC50 requested
What measured IC50 goes with CCOc1ccc(C2CC(CNS(=O)(=O)c3cc(F)ccc3C)=NN2c2ccc(Cl)cc2Cl)cc1 (stereo not shown) [Example 102] ?
7.2 nM

----------
- system_name: CB1-receptor (UniProt P20272)
- assay_overview: In-vitro determination of affinity (binding) to CB1-receptors, radioligand [3H]-CP55940
- Design: IC50; Ki; species or system human or rat
- assay_setup: Pharmacological Methods Part I
Where a name gives a salt, the structure may show the parent alone.
For each of the molecules below, state its Ki.
The reply must contain the numeric value and, after it, the unit.

# count of solved cases: 5
# molecule, assay_readout, assay_result
measured = [
    ("Cc1ccc(C)c(S(=O)(=O)NCC2=NN(c3ccc(Cl)cc3Cl)[C@@H](c3ccc(Cl)cc3)[C@H]2C)c1 (racemic) [Example 83]", "Ki", "21.4 nM"),
    ("CCOc1ccc(C2CC(CNS(=O)(=O)c3ccccc3F)=NN2c2ccc(Cl)cc2Cl)cc1 (centres unmarked) [Example 98]", "Ki", "19.8 nM"),
    ("COc1ccc(C2CC(CNS(=O)(=O)c3cccc(Cl)c3)=NN2c2ccc(Cl)cc2Cl)cc1 (centres unmarked) [Example 225]", "Ki", "39.7 nM"),
    ("Cc1ccc(F)cc1S(=O)(=O)NCC1=NN(c2ccc(Cl)cc2Cl)[C@@H](c2ccc(Cl)cc2)C1 [Example 63]", "Ki", "21 nM"),
    ("CCOc1ccc(C2CC(CNS(=O)(=O)c3cc(F)ccc3C)=NN2c2ccc(Cl)cc2Cl)cc1 (centres unmarked) [Example 102]", "Ki", "3 nM"),
]

Return reported Ki values for all items listed beneath this line.
1. O=S(=O)(NCC1=NN(c2ccc(Cl)cc2Cl)C(c2ccc(Cl)cc2)C1)c1cccnc1 (centres unmarked) [Example 53, hydrochloride]
2. Cc1ccc(C)c(S(=O)(=O)NCC2=NN(c3ccc(Cl)cc3Cl)C(c3ccc(Cl)cc3)C2)c1 (centres unmarked) [Example 44]
3. CCOc1ccc(C2CC(CNS(=O)(=O)c3cccc(Cl)c3F)=NN2c2ccc(Cl)cc2Cl)cc1 (centres unmarked) [Example 250]
4. COc1ccc(C2CC(CNS(=O)(=O)c3cc(Cl)ccc3F)=NN2c2ccc(Cl)cc2Cl)cc1 (centres unmarked) [Example 94]
5. O=S(=O)(NCC1=NN(c2ccc(Cl)cc2Cl)C(c2ccc(Cl)cc2)C1)c1cc(Cl)ccc1Cl (centres unmarked) [Example 139]

1. 43.2 nM
2. 7.3 nM
3. 16.6 nM
4. 33 nM
5. 7 nM

Consider the following items and state reported Ki for each.
1. CCOc1ccc(C2CC(CNS(=O)(=O)c3c(C)cc(C)cc3C)=NN2c2ccc(Cl)cc2Cl)cc1 (centres unmarked) [Example 272]
2. Cc1cc(S(=O)(=O)NCC2=NN(c3ccc(Cl)cc3Cl)[C@@H](c3ccc(Cl)cc3)C2)c(C)cc1Cl [Example 67]
3. Cc1ccc(F)cc1S(=O)(=O)NCC1=NN(c2ccc(Cl)cc2Cl)C(c2ccc(Br)cc2)C1 (centres unmarked) [Example 277]
4. CCOc1ccc(C2CC(CNS(=O)(=O)c3cccc(C#N)c3)=NN2c2ccc(Cl)cc2Cl)cc1 (centres unmarked) [Example 271]
5. O=S(=O)(NCC1=NN(c2ccc(Cl)cc2Cl)C(c2ccc(Cl)cc2)C1)c1ccccc1Br (centres unmarked) [Example 136]
6. CCOc1ccc(C2CC(CNS(=O)(=O)c3cc(C)c(Cl)cc3C)=NN2c2ccc(Cl)cc2Cl)cc1 (centres unmarked) [Example 247]
7. CCOc1ccc(C2CC(CNS(=O)(=O)c3cc(C)ccc3C)=NN2c2ccc(Cl)cc2Cl)cc1 (centres unmarked) [Example 103]

["5.7 nM", "40.6 nM", "18.2 nM", "4.4 nM", "16.9 nM", "27.7 nM", "5.3 nM"]

----------
Could you please report measured % inh. 10^−7 M for the items listed next?
- system_name: CB1-receptor (UniProt P20272)
- assay_overview: In-vitro determination of affinity (binding) to CB1-receptors, radioligand [3H]-CP55940
- Design: % inh; 10^−7 M; compound at 10^−7 M; species or system human or rat
- assay_setup: compound at 10^−7 M
Numbers only, in %.

Consider the reported % inh. 10^−7 M for these molecules:
# molecule, assay_readout, scale_unit, assay_result
measured = [
    ("CCS(=O)(=O)NCC1=NN(c2ccc(Cl)cc2Cl)C(c2ccc(Cl)cc2)C1 (centres unmarked) [Example 14]", "% inh. 10^−7 M", "%", 76.6),
    ("Cc1ccc(C)c(S(=O)(=O)NCC2=NN(c3ccc(Cl)cc3Cl)C(c3ccc(Cl)cc3)C2)c1 (centres unmarked) [Example 44]", "% inh. 10^−7 M", "%", 54.1),
]

Look up % inh. 10^−7 M for the entries below, preserving their order.
1. O=S(=O)(Cc1ccccc1)NCC1=NN(c2ccc(Cl)cc2Cl)C(c2ccc(Cl)cc2)C1 (centres unmarked) [Example 12]
2. CCCCS(=O)(=O)NCC1=NN(c2ccc(Cl)cc2Cl)C(c2ccc(Cl)cc2)C1 (centres unmarked) [Example 20]

1. 39.4
2. 27.2

Dear colleague, could you please provide % inh. 10^−7 M for the molecules listed below?
1. CC(=O)Nc1ccc(S(=O)(=O)NCC2=NN(c3ccc(Cl)cc3Cl)C(c3ccc(Cl)cc3)C2)cc1Cl (centres unmarked) [Example 41]
2. O=S(=O)(NCC1=NN(c2ccc(Cl)cc2Cl)C(c2ccc(Cl)cc2)C1)c1ccc(OC(F)(F)F)cc1 (centres unmarked) [Example 16]
3. CC1(C)C2CCC1(CS(=O)(=O)NCC1=NN(c3ccc(Cl)cc3Cl)C(c3ccc(Cl)cc3)C1)C(=O)C2 (centres unmarked) [Example 7]

8.2
88.0
11.9

Given O=S(=O)(CC1CCCCC1)NCC1=NN(c2ccc(Cl)cc2Cl)C(c2ccc(Cl)cc2)C1 (centres unmarked) [Example 31] , state its recorded % inh. 10^−7 M.
15.9
